Values compiled from ChEMBL document CHEMBL1140932.

Biological target: Transthyretin (Homo sapiens)
Assay: Inhibition of wild type TTR aggregation expressed in Escherichia coli assessed as fibril formation at 7.2 uM after 72 hrs relative to untreated-control
Records here are stratified by inhibition; strata: lo: < 3%; med: ≥ 3% and < 20%; hi: ≥ 20%

INSERT INTO measurements (molecule, assigned_class) VALUES
  ('O=C(Nc1cc(Br)c(O)c(Br)c1)c1ccccc1', 'hi'),
  ('O=C(Nc1cc(Br)c(O)c(Br)c1)c1cccc(F)c1', 'med'),
  ('Cc1ccccc1C(=O)Nc1cc(Br)c(O)c(Br)c1', 'lo'),
  ('COc1c(Cl)cc(C(=O)Nc2cc(Br)c(O)c(Br)c2)cc1Cl', 'med'),
  ('COc1cccc(C(=O)Nc2cc(Br)c(O)c(Br)c2)c1', 'hi'),
  ('Nc1cccc(C(=O)Nc2cc(Br)c(O)c(Br)c2)c1', 'hi'),
  ('O=C(Nc1cc(Br)c(O)c(Br)c1)c1ccccc1Br', 'lo'),
  ('COc1cc(OC)cc(C(=O)Nc2cc(Br)c(O)c(Br)c2)c1', 'hi'),
  ('COc1ccc(OC)c(C(=O)Nc2cc(Br)c(O)c(Br)c2)c1', 'lo'),
  ('O=C(Nc1cc(Br)c(O)c(Br)c1)c1cc(F)cc(F)c1', 'med'),
  ('O=C(Nc1cc(Br)c(O)c(Br)c1)c1ccccc1O', 'lo'),
  ('O=C(Nc1cc(Br)c(O)c(Br)c1)c1cc(F)ccc1F', 'lo'),
  ('COc1ccc(C(=O)Nc2cc(Br)c(O)c(Br)c2)cc1', 'hi'),
  ('O=C(Nc1cc(Br)c(O)c(Br)c1)c1cc(Br)cc(Br)c1', 'med'),
  ('O=C(Nc1cc(Br)c(O)c(Br)c1)c1cccc(Cl)c1', 'med'),
  ('O=C(Nc1cc(Br)c(O)c(Br)c1)c1cc(O)cc(O)c1', 'med'),
  ('COc1c(C)cc(C(=O)Nc2cc(Br)c(O)c(Br)c2)cc1C', 'hi'),
  ('O=C(Nc1cc(Br)c(O)c(Br)c1)c1ccc(C(F)(F)F)cc1', 'hi');
